Data origin: patent US20130251724A1

Entries and their koff
Target: T1, Human OSM (human, UniProt P13725 26-221)
T1 construct: Recombinant human OSM; also called hOSM; human Oncostatin M
T1 sequence: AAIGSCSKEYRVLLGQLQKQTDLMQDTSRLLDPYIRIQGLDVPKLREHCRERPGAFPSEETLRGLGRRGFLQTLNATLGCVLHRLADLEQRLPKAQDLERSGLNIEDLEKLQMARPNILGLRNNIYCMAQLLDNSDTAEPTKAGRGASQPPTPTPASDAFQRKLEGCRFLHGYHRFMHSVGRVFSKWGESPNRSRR
Test: BIAcore kinetics, transfection supernatant
# unit: s⁻¹ | format: bare number

binder: Humanised 10G8 H1L1 (antibody, V domains shown) VH: EMQLVESGGGLVQPGGSLRLSCAASGFTFSNYAMSWVRQAPGKGLEWVATISDGGSFTYYLDNVRGRFTISRDNAKNSLYLQMNSLRAEDTAVYYCARDVGHTTFWYFDVWGRGTLVTVSS VL: DIVMTQSPDSLAVSLGERATINCRASKSVSAAGYNFMHWYQQKPGQPPKVLIYYASNLESGVPDRFSGSGSGTDFTLTISSLQAEDVAVYYCLHSREFPFTFGGGTKVEIK
units-label: s⁻¹
test-value: 9.99e-05
--
binder: Humanised 10G8 H2L2 (antibody, V domains shown) VH: EVQLVESGGGLVQPGGSLRLSCAASGFTFSNYAMSWVRQAPGKGLEWVATISDGGSFTYYLDNVRGRFTISRDNAKNSLYLQMNSLRAEDTAVYYCARDVGHTTFWYFDVWGSGTLVTVSS VL: DIVMTQSPDSLAVSLGERATINCRASKSVSAAGYNFMHWYQQKPGQPPKLLIYYASNLESGVPDRFSGSGSGTDFTLTISSLQAEDVVVYYCLHSREFPFTFGGGTKVEIK
units-label: s⁻¹
test-value: 0.000142
--
binder: Humanised 10G8 H0L2 (antibody, V domains shown) VH: EVQLVESGGGLVQPGGSLRLSCAASGFTFSNYAMSWVRQAPGKGLEWVATISDGGSFTYYLDNVRGRFTISRDNAKNSLYLQMNSLRAEDTAVYYCARDVGHTTFWYFDVWGRGTLVTVSS VL: DIVMTQSPDSLAVSLGERATINCRASKSVSAAGYNFMHWYQQKPGQPPKLLIYYASNLESGVPDRFSGSGSGTDFTLTISSLQAEDVVVYYCLHSREFPFTFGGGTKVEIK
units-label: s⁻¹
test-value: 0.000137
--
binder: Humanised 10G8 H1L4 (antibody, V domains shown) VH: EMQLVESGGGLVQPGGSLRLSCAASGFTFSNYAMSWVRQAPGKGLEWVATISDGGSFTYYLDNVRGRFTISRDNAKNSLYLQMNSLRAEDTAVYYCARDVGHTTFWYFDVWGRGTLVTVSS VL: DIVMTQSPDSLAVSLGERATINCRASKSVSAAGYNFMHWYQQKPGQPPKVLIYYASNLESGVPDRFSGSGSGTDFTLTISSLQAEDVVVYYCLHSREFPFTFGGGTNVEIK
units-label: s⁻¹
test-value: 0.00013
--
binder: Humanised 10G8 H0L1 (antibody, human IgG1, kappa, V domains shown, IgG1 kappa; mature H0 heavy chain and mature L1 light chain; also called Humanised 10G8 H0L1 parent) VH: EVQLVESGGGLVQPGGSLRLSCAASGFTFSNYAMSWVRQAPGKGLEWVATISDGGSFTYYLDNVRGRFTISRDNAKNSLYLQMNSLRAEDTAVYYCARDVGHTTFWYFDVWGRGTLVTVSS VL: DIVMTQSPDSLAVSLGERATINCRASKSVSAAGYNFMHWYQQKPGQPPKVLIYYASNLESGVPDRFSGSGSGTDFTLTISSLQAEDVAVYYCLHSREFPFTFGGGTKVEIKR
units-label: s⁻¹
test-value: 9.95e-05
--
binder: Humanised 10G8 H0L4 (antibody, V domains shown) VH: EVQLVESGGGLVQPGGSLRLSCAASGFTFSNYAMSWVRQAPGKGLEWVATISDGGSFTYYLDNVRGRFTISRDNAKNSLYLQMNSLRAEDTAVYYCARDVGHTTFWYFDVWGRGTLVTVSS VL: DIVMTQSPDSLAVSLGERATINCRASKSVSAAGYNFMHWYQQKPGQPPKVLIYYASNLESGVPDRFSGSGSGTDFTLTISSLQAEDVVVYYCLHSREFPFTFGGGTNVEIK
units-label: s⁻¹
test-value: 0.000111
--
binder: Humanised 10G8 H2L1 (antibody, V domains shown) VH: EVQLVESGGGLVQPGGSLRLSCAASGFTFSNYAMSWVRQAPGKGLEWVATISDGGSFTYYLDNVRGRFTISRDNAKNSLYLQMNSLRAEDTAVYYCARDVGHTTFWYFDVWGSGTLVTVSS VL: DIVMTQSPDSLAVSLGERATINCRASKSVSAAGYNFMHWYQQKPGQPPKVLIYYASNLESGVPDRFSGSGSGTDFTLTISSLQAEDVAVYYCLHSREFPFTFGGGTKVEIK
units-label: s⁻¹
test-value: 0.000113
--
binder: Humanised 10G8 H1L3 (antibody, V domains shown) VH: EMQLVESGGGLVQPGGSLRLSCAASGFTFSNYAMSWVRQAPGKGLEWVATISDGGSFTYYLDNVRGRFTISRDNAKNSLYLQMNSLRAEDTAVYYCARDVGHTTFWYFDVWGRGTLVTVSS VL: DIVMTQSPDSLAVSLGERATINCRASKSVSAAGYNFMHWYQQKPGQPPKLLIYYASNLESGVPDRFSGSGSGTDFTLTISSLQAEDVAVYYCLHSREFPFTFGGGTNVEIK
units-label: s⁻¹
test-value: 0.000127

Data request: Recorded koff of Humanised 10G8 H0L3 (antibody, V domains shown) VH: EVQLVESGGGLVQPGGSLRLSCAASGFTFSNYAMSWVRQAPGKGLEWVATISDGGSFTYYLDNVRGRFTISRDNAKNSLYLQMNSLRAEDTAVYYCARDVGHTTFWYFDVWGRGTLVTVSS VL: DIVMTQSPDSLAVSLGERATINCRASKSVSAAGYNFMHWYQQKPGQPPKLLIYYASNLESGVPDRFSGSGSGTDFTLTISSLQAEDVAVYYCLHSREFPFTFGGGTNVEIK , please.
Data returned: 0.000145

Data request: Recorded koff of 10G8 chimaera (antibody, human IgG1, kappa, V domains shown, Mouse V regions on human gamma 1 wild type and human kappa constant regions; the entries called VH/VL domain (chimera) are full chains; also called 10G8 chimera; 10G8 Chimæra) VH: EMQLVESGEGLVEPGGSLKLSCAASGFTFSNYAMSWVRQTPEKSLEWVATISDGGSFTYYLDNVRGRFTISRDNAKNNLYLQMSHLKSDDTAMYYCARDVGHTTFWYFDVWGSGTLVTVSS VL: DIVLTQSPVFLVVSLGQRATISCRASKSVSAAGYNFMHWYQQKPGQPPKVLIKYASNLESGVPARFSGSGSGTDFTLNIHPVEEEDAVTYYCLHSREFPFTFGGGTNLEIKR , please.
Data returned: 0.000103
